Kindly state optical density for each of the entries shown.
target-or-system: T1, Goat anti-Human Kappa
T1 construct: Positive control; also called biotinylated goat anti-human kappa light chain
test-protocol: ELISA; positive control; note: test concentration or dose not given here
Answers are plain numbers, in OD.

Input line: # optical density lookup, item 367_B07 (antibody, V domains shown, VH/VL only) VH: EVQLLESGGGLVQPGGSLRLSCAASGFTFSDYSMNWVRQAPGKGLEWVAGINYNSGYTGYADSVKGRFTISRDNSKNTLYLQMNSLRAEDTAVYYCARSANWHDTHLDYWGQGTLVTVSS VL: DIQMTQSPSSLSASVGDRVTITCRASQSIISYVNWYQQKPGKAPKLLIYAATSLASGVPSRFSGSGSGTDFTLTISSLQPEDFATYYCQQSYNLPLTFGGGTKVEIK
Output line: 3.34

Input line: Entry to check: 365_A12 (antibody, V domains shown, VH/VL only) VH: EVQLLESGGGLVQPGGSLRLSCAASGFTFSSYGMHWVRQAPGKGLEWVAGINYNGGYTSYADSVKGRFTISRDNSKNTLYLQMNSLRAEDTAVYYCAKSANWHDTHLDYWGQGTLVTVSS VL: DIQMTQSPSSLSASVGDRVTITCRASQSILTYVNWYQQKPGKAPKLLIYAATSRHSGVPSRFSGSGSGTDFTLTISSLQPEDFATYYCQQSYENPLTFGGGTKVEIK
Output line: 3.67

Input line: Entry to check: 366_G09 (antibody, V domains shown, VH/VL only) VH: EVQLLESGGGLVQPGGSLRLSCAASGFTFDDYSMNWVRQAPGKGLEWVASINYNSGYTGYADSVKGRFTISRDNSKNTLYLQMNSLRAEDTAVYYCARGATWHDTHLDYWGQGTLVTVSS VL: DIQMTQSPSSLSASVGDRVTITCRASQSILSYVNWYQQKPGKAPKLVIYAATSRASGVPSRFSGSGSGTDFTLTISSLQPEDFATYYCQQSYDLPLTFGGGTKVEIK
Output line: 3.44

Input line: Entry to check: 367_A05 (antibody, V domains shown, VH/VL only) VH: EVQLLESGGGLVQPGGSLRLSCAASGFTFSDYGMNWVRQAPGKGLEWVSSINYNGGYKGYADSVKGRFTISRDNSKNTLYLQMNSLRAEDTAVYYCARSANWHDTALDYWGQGTLVTVSS VL: DIQMTQSPSSLSASVGDRVTITCRASQSILSYLNWYQQKPGKAPKLVIYAVTSRASGVPSRFSGSGSGTDFTLTISSLQPEDFATYYCQQSYDSPLTFGGGTKVEIK
Output line: 3.38

Input line: Entry to check: 366_F05 (antibody, V domains shown, VH/VL only) VH: EVQLLESGGGLVQPGGSLRLSCAASGFTFSSYSMNWVRQAPGKGLEWVANINYNSGYKSYADSVKGRFTISRDNSKNTLYLQMNSLRAEDTAVYYCARSANWHDTHLDYWGQGTLVTVSS VL: DIQMTQSPSSLSASVGDRVTITCRASQSILTYLNWYQQKPGKAPKLLIYAATSRASGVPSRFSGSGSGTDFTLTISSLQPEDFATYYCQQSDNTPLTFGGGTKVEIK
Output line: 3.25

Input line: Entry to check: 370_G08 (antibody, V domains shown, VH/VL only) VH: EVQLLESGGGLVQPGGSLRLSCAASGFTFSDYSMNWVRQAPGKGLEWVAGINYNGGYTGYADSVKGRFTISRDNSKNTLYLQMNSLRAEDTAVYYCARGATWHDTHLDYWGQGTLVTVSS VL: DIQMTQSPSSLSASVGDRVTITCRASQSILTYLNWYQQKPGKAPKLVIYAATSRASGVPSRFSGSGSGTDFTLTISSLQPEDFATYYCQQSYESPLTFGGGTKVEIK
Output line: 3.56

Input line: Entry to check: 376_H04 (antibody, V domains shown, VH/VL only) VH: EVQLLESGGGLVQPGGSLRLSCAASGFTFSSYSMNWVRQAPGKGLEWVAGINYNGGYKGYADSVKGRFTISRDNSKNTLYLQMNSLRAEDTAVYYCARGANWHDTALDYWGQGTLVTVSS VL: DIQMTQSPSSLSASVGDRVTITCRASQSILTYVNWYQQKPGKAPKLVIYAATSRASGVPSRFSGSGSGTDFTLTISSLQPEDFATYYCQQSYDLPLTFGGGTKVEIK
Output line: 3.51

Input line: Entry to check: 374_D04 (antibody, V domains shown, VH/VL only) VH: EVQLLESGGGLVQPGGSLRLSCAASGFTFSSYSMNWVRQAPGKGLEWVAGINYNGGYTSYADSVKGRFTISRDNSKNTLYLQMNSLRAEDTAVYYCARGATWHDTHLDYWGQGTLVTVSS VL: DIQMTQSPSSLSASVGDRVTITCRASQSILSYLNWYQQKPGKAPKLVIYAATSRHSGVPSRFSGSGSGTDFTLTISSLQPEDFATYYCQQSYDTPLTFGGGTKVEIK
Output line: 3.05

Input line: Entry to check: 365_G11 (antibody, V domains shown, VH/VL only) VH: EVQLLESGGGLVQPGGSLRLSCAASGFTFSSYGMNWVRQAPGKGLEWVANINYNGGYTGYADSVKGRFTISRDNSKNTLYLQMNSLRAEDTAVYYCARSANWHDTALDYWGQGTLVTVSS VL: DIQMTQSPSSLSASVGDRVTITCRASQSIITYVNWYQQKPGKAPKLLIYAVTSRHSGVPSRFSGSGSGTDFTLTISSLQPEDFATYYCQQSYNSPLTFGGGTKVEIK
Output line: 3.47

# next binder below
Input line: # optical density lookup, item 370_H04 (antibody, V domains shown, VH/VL only) VH: EVQLLESGGGLVQPGGSLRLSCAASGFTFSSYSMNWVRQAPGKGLEWVSNINYNGGYTGYADSVKGRFTISRDNSKNTLYLQMNSLRAEDTAVYYCARGATWHDTHLDYWGQGTLVTVSS VL: DIQMTQSPSSLSASVGDRVTITCRASQSILSYVNWYQQKPGKAPKLLIYAATSRASGVPSRFSGSGSGTDFTLTISSLQPEDFATYYCQQSYDLPLTFGGGTKVEIK
Output line: 3.62
